system: VDR:RXRa (NR concentration 270 nM, RXRa partner concentration 90 nM); test: PBM binding z-score (relative to random genomic background probes); higher = stronger binding; sequences stand for … in GC…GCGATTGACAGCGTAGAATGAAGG
Entries annotated with measured PBM binding z-score
Could you keep your reply to the number by itself?

Examples from the recorded data:
>  <seq.string>
CTTACTGGGCCATCAGGTCATTGATATCAACGTT

>  <reported.result>
1.91

$$$$
>  <seq.string>
ATATGTAGGTTACATTCGGGTCATTCAGGCTATG

>  <reported.result>
4.24

$$$$

[Q] Please supply the value of reported PBM binding z-score for the item CCTACTGGGCCTAGGTCATTGATCAGTCAAAGCA
[A] 0.813

[Q] Please supply the value of reported PBM binding z-score for the item AGAATGAGGTTATTAAGATCAAGGAATTGCGGTC
[A] 3.11

[Q] Please supply the value of reported PBM binding z-score for the item GCAACGAGGGCATTCGAGTTGATAGCATGGCGAT
[A] 3.57

[Q] Please supply the value of reported PBM binding z-score for the item GCTGCTAGGTCAGGTTGGACAGCTAACGGGTACG
[A] 0.304

[Q] Please supply the value of reported PBM binding z-score for the item CCTCGGAGGACAACACGAGGTCAGAGCTGCCAGA
[A] 2.72

[Q] Please supply the value of reported PBM binding z-score for the item GATACAGAGTCAAGGCCAGAGTACGCGTATTGAT
[A] -0.36

[Q] Please supply the value of reported PBM binding z-score for the item TAGCCGAGGTCATTGGGCCAGTATAGTACGCATC
[A] 5.59

[Q] Please supply the value of reported PBM binding z-score for the item TAGCCTAGGTCATTGAGGGGCCAGTATAGAAAGC
[A] 3.07

[Q] Please supply the value of reported PBM binding z-score for the item CCTAGCAGGCCAATCTGGGTCACTCAGGGCTTGA
[A] 0.721

[Q] Please supply the value of reported PBM binding z-score for the item ATCTCTAGGTAACCAGTTCAGTGAAAGAGAGGAC
[A] 1.16

[Q] Please supply the value of reported PBM binding z-score for the item TTAGACAGGTGAAGGTAACTCAGGTACGCAGTCG
[A] 0.618

[Q] Please supply the value of reported PBM binding z-score for the item TTACCAAGGTGAGCTGAGGTCGGTGATCCAACTC
[A] 1.26
